Experiment: Compound 1 PK dosed Days 1-5 with topotecan
Assay type: in vivo, human
Settings: human, plasma, intravenous, 200 mg/m^2 with Topotecan […]^2 (Cohort 1), Day 4, Mean; read-out: t½ (converted)
Description: Analysis of plasma concentration versus time data for calculation of standard pharmacokinetic (PK) parameters following intravenous infusion administration was conducted using Phoenix WinNonlin version 6.3 using a nominal infusion duration and scheduled blood sampling times.

{"smiles.structure": "CN1CCN(c2ccc(Nc3ncc4cc5n(c4n3)C3(CCCCC3)CNC5=O)nc2)CC1", "unit.descriptor": "h", "half-life": 8.06}

###

assay: Compound 1 PK dosed Days 1-3 with etoposide and carboplatin; assay type: in vivo, human; conditions: human, plasma, intravenous, 200 mg/m2, 200 mg/m^2 with Etoposide and Carboplatin, Day 3, Median; read-out: AUCτ
recorded.metric: AUC (ng·h/mL)

{"smiles.structure": "CN1CCN(c2ccc(Nc3ncc4cc5n(c4n3)C3(CCCCC3)CNC5=O)nc2)CC1", "value.measured": 2620}

###

experiment: Single escalating dose IV infusion pharmacokinetics in healthy volunteers (noncompartmental); assay type: in vivo, human; conditions: both, human, plasma, intravenous, […]^2, Cohort 6 + 7, […]^2, N = 18; min-max; read-out: tmax

{"compound": "CN1CCN(c2ccc(Nc3ncc4cc5n(c4n3)C3(CCCCC3)CNC5=O)nc2)CC1 [Compound 1]", "Tmax": "15 to 28.8 min"}

###

Assay: 14-day oral gavage toxicokinetic study in rats
Assay type: in vivo
Settings: female, rat, plasma, po, 30 mg/kg, Individual Compound 1 Plasma Concentration, rats, daily oral 30 mg/kg, Day 14, Female, 2 h
Experimental: Plasma was obtained from blood samples collected from rats in a composite sampling scheme, with 3 samples collected per sex, per dose, at each target collection time, as illustrated in Table 21 to Table 25. […] The following parameters were determined: […] A value of 0 ng/mL was assigned to all values below the lower limit of quantitation (BLQ, <10.0 ng/mL). […] CL: Clearance (L/h/kg), calculated as the dose divided by AUC(0-t). […] Cmax/Dose: Normalized Cmax, calculated as Cmax divided by total dose. […]
recorded.metric: concentration at 2 h

{"smiles.structure": "CN1CCN(c2ccc(Nc3ncc4cc5n(c4n3)C3(CCCCC3)CNC5=O)nc2)CC1", "value.measured": "2170 ng/mL"}

###

experiment: Topotecan PK following Compound 1 infusion; assay type: in vivo, human; conditions: human, plasma, intravenous, Topotecan […]^2 (Cohort 1) with Compound 1 200 mg/m^2, Day 4, Median; read-out: Cmax
recorded.metric: Cmax (ng/mL)

{"smiles.structure": "CC[C@@]1(O)C(=O)OCc2c1cc1n(c2=O)Cc2cc3c(CN(C)C)c(O)ccc3nc2-1.Cl", "recorded.metric": "Cmax", "unit.descriptor": "ng/mL", "value.measured": 89.3}

###

test: Topotecan PK following Compound 1 infusion; assay type: in vivo, human; conditions: human, plasma, intravenous, Topotecan 0.75 mg/m^2 (Cohort 3) with Compound 1 200 mg/m^2, Day 1, individual subjects; read-out: AUC24.5
recorded.metric: AUC (ng·h/mL)

{"smiles.structure": "CC[C@@]1(O)C(=O)OCc2c1cc1n(c2=O)Cc2cc3c(CN(C)C)c(O)ccc3nc2-1.Cl", "value.measured": 83.5}

###

experiment: 14-day oral gavage toxicokinetic study in rats; format: in vivo; settings: male, rat, plasma, po, 30 mg/kg, Mean Compound 1 Plasma Concentration, rats, oral 30 mg/kg, Day 1, 8 h, Male
recorded.metric: concentration at 8 h

{"compound": "CN1CCN(c2ccc(Nc3ncc4cc5n(c4n3)C3(CCCCC3)CNC5=O)nc2)CC1 [Compound 1]", "recorded.metric": "concentration at 8 h", "value.measured": "1860 ng/mL"}

###

test: 14-day oral gavage toxicokinetic study in rats; format: in vivo; details: male, rat, plasma, po, 15 mg/kg, Individual Compound 1 Plasma Concentration, rats, daily oral 15 mg/kg, Day 14, Male, 0.5 h

{"molecule": "CN1CCN(c2ccc(Nc3ncc4cc5n(c4n3)C3(CCCCC3)CNC5=O)nc2)CC1 [Compound 1]", "unit.descriptor": "ng/mL", "concentration at 0.5 h": 741}

###

Test: Single escalating dose IV infusion pharmacokinetics in healthy volunteers (noncompartmental)
Format: in vivo, human
Settings: both sexes, human, plasma, iv, 24 mg/m2, Cohort 3, 24 mg/m^2 IV; r6-8=Subjects 1-3,r10=Mean,r12=Min,r13=Median,r14=Max,r16=Geometric Mean; read-out: Cmax
Protocol: Forty-five subjects have enrolled in the study. Analysis of plasma concentration versus time data for calculation of standard pharmacokinetic (PK) parameters following intravenous infusion administration was conducted using Phoenix WinNonlin version 6.3 using a nominal infusion duration and scheduled blood sampling times. Random subject numbers were assigned by the bioanalytical laboratory to retain the blind. […]
recorded.metric: Cmax (ng/mL)

{"smiles.structure": "CN1CCN(c2ccc(Nc3ncc4cc5n(c4n3)C3(CCCCC3)CNC5=O)nc2)CC1", "unit.descriptor": "ng/mL", "value.measured": 252}

###

experiment: 14-day oral gavage toxicokinetic study in rats; format: in vivo; conditions: male, rat, plasma, po, 30 mg/kg, Individual Compound 1 Plasma Concentration, rats, daily oral 30 mg/kg, Day 14, Male, 12 h
recorded.metric: concentration at 12 h (ng/mL)

{"smiles.structure": "CN1CCN(c2ccc(Nc3ncc4cc5n(c4n3)C3(CCCCC3)CNC5=O)nc2)CC1", "recorded.metric": "concentration at 12 h", "unit.descriptor": "ng/mL", "value.measured": 1230}

###

experiment: Single escalating dose IV infusion pharmacokinetics in healthy volunteers (noncompartmental); assay type: in vivo, human; settings: both sexes, human, plasma, iv, 12 mg/m^2, Compound 1 Concentration, Cohort 2, 12 mg/m^2 IV; Time 2.5 h; r7-9=Subjects 1-3,r11=Mean,r13=Min,r14=Median,r15=Max,r17=Geometric Mean
recorded.metric: concentration at 2.5 h (ng/mL)

{"smiles.structure": "CN1CCN(c2ccc(Nc3ncc4cc5n(c4n3)C3(CCCCC3)CNC5=O)nc2)CC1", "value.measured": 8.75}

###

Assay: 14-day oral gavage toxicokinetic study in rats
Assay type: in vivo
Conditions: both sexes, rat, plasma, po, 15 mg/kg, Mean Compound 1 Plasma Concentration, rats, oral 15 mg/kg, Day 1, 0.5 h, Overall
Method: Plasma was obtained from blood samples collected from rats in a composite sampling scheme, with 3 samples collected per sex, per dose, at each target collection time, as illustrated in Table 21 to Table 25. […] The following parameters were determined: […] A value of 0 ng/mL was assigned to all values below the lower limit of quantitation (BLQ, <10.0 ng/mL). […] CL: Clearance (L/h/kg), calculated as the dose divided by AUC(0-t). […] Cmax/Dose: Normalized Cmax, calculated as Cmax divided by total dose. […]
recorded.metric: concentration at 0.5 h (ng/mL)

{"compound": "CN1CCN(c2ccc(Nc3ncc4cc5n(c4n3)C3(CCCCC3)CNC5=O)nc2)CC1 [Compound 1]", "recorded.metric": "concentration at 0.5 h", "unit.descriptor": "ng/mL", "value.measured": 899}

###

assay: 14-day oral gavage toxicokinetic study in rats; format: in vivo; settings: female, rat, plasma, po, 15 mg/kg, Individual Compound 1 Plasma Concentration, rats, daily oral 15 mg/kg, Day 1, Female, 0.5 h
recorded.metric: concentration at 0.5 h

{"smiles.structure": "CN1CCN(c2ccc(Nc3ncc4cc5n(c4n3)C3(CCCCC3)CNC5=O)nc2)CC1", "recorded.metric": "concentration at 0.5 h", "value.measured": "1050 ng/mL"}

###

Test: Single escalating dose IV infusion pharmacokinetics in healthy volunteers (noncompartmental)
Type: in vivo, human
Details: both sexes, human, plasma, iv, 6 mg/m2, Cohort 1, 6 mg/m^2 IV; r6-8=Subjects 1-3,r10=Mean,r12=Min,r13=Median,r14=Max,r16=Geometric Mean; read-out: t½ (converted)
Procedure: Forty-five subjects have enrolled in the study. Analysis of plasma concentration versus time data for calculation of standard pharmacokinetic (PK) parameters following intravenous infusion administration was conducted using Phoenix WinNonlin version 6.3 using a nominal infusion duration and scheduled blood sampling times. Random subject numbers were assigned by the bioanalytical laboratory to retain the blind. […]
recorded.metric: half-life (h)

{"molecule": "CN1CCN(c2ccc(Nc3ncc4cc5n(c4n3)C3(CCCCC3)CNC5=O)nc2)CC1 [Compound 1]", "unit.descriptor": "h", "value.measured": 4.87}

###

experiment: Single escalating dose IV infusion pharmacokinetics in healthy volunteers (noncompartmental); format: in vivo, human; conditions: both sexes, human, plasma, iv, 96 mg/m^2, Compound 1 Concentration, Cohort 5, 96 mg/m^2 IV; Time 12.50 h; r7-12=Subjects 1-6,r14=Mean,r16=Min,r17=Median,r18=Max,r20=Geometric Mean

{"compound": "CN1CCN(c2ccc(Nc3ncc4cc5n(c4n3)C3(CCCCC3)CNC5=O)nc2)CC1 [Compound 1]", "unit.descriptor": "ng/mL", "concentration at 12.5 h": 11.9}
